- measuredTarget: T1, MPP2, Q14168
- T1 sequence (Q14168 180-250, limits assumed, looked up): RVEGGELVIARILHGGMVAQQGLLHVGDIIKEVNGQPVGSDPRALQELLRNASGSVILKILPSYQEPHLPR
- experimentNotes: holdup assay
- Parameters: key: below the threshold = too weak to quantify, mostly under pKd 3.1 to 4
- measurementContext: plain residues with an end cap or a label only (N-terminal biotin on a linker: ado-ado)
measuredMetric: pKd

> print(dat)
                         binder  measuredmetric  recordedmeasurement
1  GTMFLRETSL [GUCY1A2, P33402]             pKd  below the threshold
2   SKQFDKNAYV [CLDN10, P78369]             pKd  below the threshold
3  IKLETKKTKL [SLC15A2, Q16348]             pKd  below the threshold
4    DAAHHDESNC [FMNL3, Q8IVF7]             pKd  below the threshold
5    ATKDKKITTV [EXOC4, Q96A65]             pKd  below the threshold
6   QKASRNESTF [POLR1D, P0DPB6]             pKd  below the threshold
7    KLQNPNQSVV [TYRP1, P17643]             pKd  below the threshold
8   THHRKIHTRV [ZNF599, Q96NL3]             pKd  below the threshold

Origin of values: paper PMC9482650
